Target: GABA A receptor α5β3γ2 (hα5) (Homo sapiens, UniProt P18507+P31644)
Construct: expressed in transfected cells; host or cells: HEK293 (transiently transfected; membranes)
Test: [3H]flumazenil competition binding assay, human GABA A α5 receptor
Settings: displacement of [3H]flumazenil (0.5 nM) from HEK293 cell membranes expressing α5β3γ2; means of two determinations
Property: Ki; scope: individual molecules
I only need the number, in nM, no unit after it.

Example entries and their recorded answers appear below.
Task item: Please give the measured Ki for this molecule: O=C(c1ccc(-n2cnc(-c3c(-c4ccccc4)noc3C(F)(F)F)c2)nc1)N1CCSCC1
Reply: 91.1

Task item: Please give the result for N#Cc1ccc(-n2cnc(-c3c(-c4ccc(F)cc4)noc3C(F)(F)F)c2)nc1 too.
Reply: 32.3

Would you kindly look at the next entry?
Task item: Please give the measured Ki for this molecule: Cc1ccc(-n2cnc(-c3c(-c4ccccc4)noc3C(F)(F)F)c2)cc1
Reply: 84.2

====

Molecular target: GABA A receptor α5β3γ2 (hα5) (Homo sapiens, UniProt P18507+P31644)
Construct: expressed in transfected cells; host or cells: HEK293 (transiently transfected; membranes)
Assay: [3H]flumazenil competition binding assay, human GABA A α5 receptor
Conditions: displacement of [3H]flumazenil (0.5 nM) from HEK293 cell membranes expressing α5β3γ2; means of two determinations
quantity.measured: Ki (nM)
I only need the number, in nM, no unit after it.

Example entries and their recorded answers appear below.
Task item: Please give the measured Ki for this compound: O=C(NCC(F)(F)F)c1ccc(-n2cnc(-c3c(-c4ccccc4)noc3C(F)(F)F)c2)cc1 [Example 11]
Reply: 17.6

Task item: Please give the result for O=[N+]([O-])c1ccc(-n2cnc(-c3c(-c4ccccc4)noc3C(F)(F)F)c2)cc1 [Example 7] too.
Reply: 19.7

Task item: Please give the result for O=C(NC1CCOCC1)c1ccc(-n2cnc(-c3c(-c4ccccc4)noc3C(F)(F)F)c2)cc1 [Example 13] too.
Reply: 41.2

Task item: Please give the result for O=C(NC1CC1)c1cnc(-n2cnc(-c3c(-c4ccccc4)noc3C(F)(F)F)c2)cn1 [Example 55] too.
Reply: 14.1

Task item: Please give the result for O=C(c1ccc(-n2cnc(-c3c(-c4ccc(F)cc4)noc3C(F)(F)F)c2)cc1)N1CCS(=O)(=O)CC1 [Example 35] too.
Reply: 87.4

***
Task item: Please give the measured Ki for this compound: O=C(O)c1ccc(-n2cnc(-c3c(-c4ccc(F)cc4)noc3C(F)(F)F)c2)cc1 [Example 28]
Reply: 76.7

Task item: Please give the result for CC(=O)c1ccc(-n2cnc(-c3c(-c4ccc(F)cc4)noc3C(F)(F)F)c2)nc1 [Example 36] too.
Reply: 17.2

Task item: Please give the result for NC(=O)c1ccc(-n2cnc(-c3c(-c4ccc(F)cc4)noc3C(F)(F)F)c2)cc1 [Example 31] too.
Reply: 17.1

====

Property: Ki; scope: individual compounds
Target: GABA A receptor α5β3γ2 (hα5) (Homo sapiens, UniProt P18507+P31644)
Construct: expressed in transfected cells; host or cells: HEK293 (transiently transfected; membranes)
Test: [3H]flumazenil competition binding assay, human GABA A α5 receptor
Details: displacement of [3H]flumazenil (0.5 nM) from HEK293 cell membranes expressing α5β3γ2; means of two determinations
Could you give the number and then its unit, please?

Task item: Any idea what Ki came out for CC(C)(O)c1ccc(-n2cnc(-c3c(-c4ccc(F)cc4)noc3C(F)(F)F)c2)cc1 [Example 29] on GABA A receptor α5β3γ2 (hα5) (Homo sapiens, UniProt P18507+P31644)?
Reply: 28.4 nM

Task item: Please give the result for COC(=O)c1ccc(-n2cnc(-c3c(-c4ccc(F)cc4)noc3C(F)(F)F)c2)cc1 [Example 27] too.
Reply: 22.1 nM

***
Task item: Any idea what Ki came out for COC(=O)c1ccc(-n2cnc(-c3c(-c4ccccc4)noc3C(F)(F)F)c2)nc1 [Example 17] on GABA A receptor α5β3γ2 (hα5) (Homo sapiens, UniProt P18507+P31644)?
Reply: 31.5 nM

Task item: Please give the result for O=C(NC1CCOCC1)c1ccc(-n2cnc(-c3c(-c4ccc(Cl)cc4)noc3C(F)(F)F)c2)nc1 [Example 51] too.
Reply: 8.5 nM

Task item: Please give the result for O=C(NC1CC1)c1ccc(-n2cnc(-c3c(-c4ccccc4)noc3C(F)(F)F)c2)cc1 [Example 12] too.
Reply: 11.7 nM

Task item: Please give the result for N#Cc1ccc(-n2cnc(-c3c(-c4ccccc4)noc3C(F)(F)F)c2)cc1 [Example 5] too.
Reply: 41.2 nM

Task item: Please give the result for CC(C)(O)c1ccc(-n2cnc(-c3c(-c4ccc(F)cc4)noc3C(F)(F)F)c2)nc1 [Example 43] too.
Reply: 38.2 nM

Task item: Please give the result for FC(F)(F)c1ccc(-n2cnc(-c3c(-c4ccccc4)noc3C(F)(F)F)c2)cc1 [Example 4] too.
Reply: 39.7 nM

====

Property: log10 Ki; scope: individual compounds
Target: GABA A receptor α5β3γ2 (hα5) (Homo sapiens, UniProt P18507+P31644)
Construct: expressed in transfected cells; host or cells: HEK293 (transiently transfected; membranes)
Experiment: [3H]flumazenil competition binding assay, human GABA A α5 receptor
Conditions: displacement of [3H]flumazenil (0.5 nM) from HEK293 cell membranes expressing α5β3γ2; means of two determinations
Scale: decimal log of Ki, Ki in nM.

Task item: Please give the measured log10 Ki for this compound: COc1ccc(-n2cnc(-c3c(-c4ccccc4)noc3C(F)(F)F)c2)cc1
Reply: 1.66

Task item: Please give the result for O=[N+]([O-])c1ccc(-n2cnc(-c3c(-c4ccc(Cl)cc4)noc3C(F)(F)F)c2)cc1 too.
Reply: 1.77

Task item: Please give the result for CC(=O)c1ccc(-n2cnc(-c3c(-c4ccccc4)noc3C(F)(F)F)c2)cc1 too.
Reply: 1.10

====

Property: Ki; scope: individual compounds
Molecular target: GABA A receptor α5β3γ2 (hα5) (Homo sapiens, UniProt P18507+P31644)
Construct: expressed in transfected cells; host or cells: HEK293 (transiently transfected; membranes)
Test: [3H]flumazenil competition binding assay, human GABA A α5 receptor
Settings: displacement of [3H]flumazenil (0.5 nM) from HEK293 cell membranes expressing α5β3γ2; means of two determinations
Protocol: Membrane Preparation and Binding Assay The affinity of compounds at GABA A receptor subtypes was measured by competition for [3H]flumazenil (85 Ci/mmol; Roche) binding to HEK293 cells expressing rat (stably transfected) or human (transiently transfected) receptors of composition α1β3γ2, α2β3γ2, α3β3γ2 and α5β3γ2. […]
I only need the number, in nM, no unit after it.

Example entries and their recorded answers appear below.
Task item: Please give the measured Ki for this compound: O=C(NCC1CC1)c1ccc(-n2cnc(-c3c(-c4ccccc4)noc3C(F)(F)F)c2)cc1 [Example 10]
Reply: 23.6

Task item: Please give the result for O=C(NCC(F)(F)F)c1ccc(-n2cnc(-c3c(-c4ccc(F)cc4)noc3C(F)(F)F)c2)nc1 [Example 39] too.
Reply: 4.9

Task item: Please give the result for O=C(NC1CC1)c1ccc(-n2cnc(-c3c(-c4ccc(F)cc4)noc3C(F)(F)F)c2)nc1 [Example 40] too.
Reply: 4.1

Task item: Please give the result for FC(F)(F)c1onc(-c2ccccc2)c1-c1cn(-c2ncccn2)cn1 [Example 54] too.
Reply: 73

***
Task item: Please give the measured Ki for this compound: FC(F)(F)c1onc(-c2ccccc2)c1-c1cn(-c2ccccc2)cn1 [Example 1]
Reply: 53.2
